Where these numbers come from: paper PMC4434323

# Target or system: egrh-3 (Y94H6A.11) (Caenorhabditis elegans)
# Sequence: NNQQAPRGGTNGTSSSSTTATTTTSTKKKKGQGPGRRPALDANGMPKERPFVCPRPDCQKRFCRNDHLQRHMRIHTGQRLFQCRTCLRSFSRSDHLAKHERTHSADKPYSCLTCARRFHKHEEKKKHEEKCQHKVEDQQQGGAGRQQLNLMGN
Quantity: binding signal (PBM E-score (-0.5 to 0.5))
Respond using a number only.

A selection of reference data follows.
# Entry sequence, Target or system, Measurement
data = [
    ("AGGGGGGA (double strand) [8-mer AGGGGGGA]", "egrh-3 (Y94H6A.11) (Caenorhabditis elegans)", 0.493),
    ("ACCCCCCC (double strand) [8-mer ACCCCCCC]", "egrh-3 (Y94H6A.11) (Caenorhabditis elegans)", 0.497),
]

QUERY: Name the reported binding signal (PBM E-score (-0.5 to 0.5)) value associated with the sequence CTCCCCCC (double strand) [8-mer CTCCCCCC]
RESULT: 0.497

QUERY: Name the reported binding signal (PBM E-score (-0.5 to 0.5)) value associated with the sequence AAGGGGGG (double strand) [8-mer AAGGGGGG]
RESULT: 0.495

QUERY: Name the reported binding signal (PBM E-score (-0.5 to 0.5)) value associated with the sequence CCCCCCCC (double strand) [8-mer CCCCCCCC]
RESULT: 0.5

QUERY: Name the reported binding signal (PBM E-score (-0.5 to 0.5)) value associated with the sequence CCCCCCTC (double strand) [8-mer CCCCCCTC]
RESULT: 0.497

###

# Target or system: ztf-19 (T27B1.2) (Caenorhabditis elegans)
# Sequence: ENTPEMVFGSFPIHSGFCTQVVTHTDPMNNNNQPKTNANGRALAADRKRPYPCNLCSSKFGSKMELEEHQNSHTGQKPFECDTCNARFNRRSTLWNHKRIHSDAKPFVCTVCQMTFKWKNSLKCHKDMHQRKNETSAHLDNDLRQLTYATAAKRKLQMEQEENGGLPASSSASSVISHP
Quantity: binding signal (PBM E-score (-0.5 to 0.5))

A selection of reference data follows.
# Entry sequence, Target or system, Measurement
data = [
    ("ATTACACA (double strand) [8-mer ATTACACA]", "ztf-19 (T27B1.2) (Caenorhabditis elegans)", 0.493),
    ("CGTTGTAA (double strand) [8-mer CGTTGTAA]", "ztf-19 (T27B1.2) (Caenorhabditis elegans)", 0.493),
    ("CAGTGTAA (double strand) [8-mer CAGTGTAA]", "ztf-19 (T27B1.2) (Caenorhabditis elegans)", 0.494),
]

QUERY: Name the reported binding signal (PBM E-score (-0.5 to 0.5)) value associated with the sequence TAGTGTAA (double strand) [8-mer TAGTGTAA]
RESULT: 0.495

QUERY: Name the reported binding signal (PBM E-score (-0.5 to 0.5)) value associated with the sequence CTTTACAC (double strand) [8-mer CTTTACAC]
RESULT: 0.494

QUERY: Name the reported binding signal (PBM E-score (-0.5 to 0.5)) value associated with the sequence AGTGTAAC (double strand) [8-mer AGTGTAAC]
RESULT: 0.491

QUERY: Name the reported binding signal (PBM E-score (-0.5 to 0.5)) value associated with the sequence AGTGTAAT (double strand) [8-mer AGTGTAAT]
RESULT: 0.497

QUERY: Name the reported binding signal (PBM E-score (-0.5 to 0.5)) value associated with the sequence AGTGTAAA (double strand) [8-mer AGTGTAAA]
RESULT: 0.494

QUERY: Name the reported binding signal (PBM E-score (-0.5 to 0.5)) value associated with the sequence TGTGTAAA (double strand) [8-mer TGTGTAAA]
RESULT: 0.491

QUERY: Name the reported binding signal (PBM E-score (-0.5 to 0.5)) value associated with the sequence ATTACAAC (double strand) [8-mer ATTACAAC]
RESULT: 0.496

###

# Target or system: nhr-5 (Y73F8A.21) (Caenorhabditis elegans) (UniProt Q9NA51)
# Sequence: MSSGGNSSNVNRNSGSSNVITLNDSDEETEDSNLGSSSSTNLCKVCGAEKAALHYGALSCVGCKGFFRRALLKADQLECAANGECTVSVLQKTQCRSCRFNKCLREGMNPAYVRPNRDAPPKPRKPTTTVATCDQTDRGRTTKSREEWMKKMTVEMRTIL
As shown below, each of these sequences has a reported binding signal (PBM E-score (-0.5 to 0.5)) value.
Respond using a number only.

# Entry sequence, Measurement
rows = [
    ("AGAGTACA (double strand) [8-mer AGAGTACA]", 0.48),
    ("AAGTACAC (double strand) [8-mer AAGTACAC]", 0.457),
    ("AAGTGCAC (double strand) [8-mer AAGTGCAC]", 0.453),
    ("AGTGCACT (double strand) [8-mer AGTGCACT]", 0.456),
]

Here's the next entry for you.
QUERY: Name the reported binding signal (PBM E-score (-0.5 to 0.5)) value associated with the sequence AAAGTACA (double strand) [8-mer AAAGTACA]
RESULT: 0.482

###

# Target or system: skn-1 (T19E7.2) (Caenorhabditis elegans)
# Sequence: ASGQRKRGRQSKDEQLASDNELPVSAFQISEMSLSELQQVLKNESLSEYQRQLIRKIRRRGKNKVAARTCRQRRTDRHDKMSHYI
As shown below, each of these sequences has a reported binding signal (PBM E-score (-0.5 to 0.5)) value.
Respond using a number only.

A selection of reference data follows.
# Entry sequence, Measurement
rows = [
    ("ATATCATC (double strand) [8-mer ATATCATC]", 0.485),
    ("AGGATGAC (double strand) [8-mer AGGATGAC]", 0.489),
    ("GATGACTA (double strand) [8-mer GATGACTA]", 0.489),
    ("ATGTCATC (double strand) [8-mer ATGTCATC]", 0.494),
    ("ATGATGAC (double strand) [8-mer ATGATGAC]", 0.497),
    ("ATGACAAT (double strand) [8-mer ATGACAAT]", 0.495),
    ("ATGACAAA (double strand) [8-mer ATGACAAA]", 0.493),
    ("AGTCATCA (double strand) [8-mer AGTCATCA]", 0.491),
]

Here's the next entry for you.
QUERY: Name the reported binding signal (PBM E-score (-0.5 to 0.5)) value associated with the sequence CGTCATCA (double strand) [8-mer CGTCATCA]
RESULT: 0.492

###

As shown below, each of these sequences has a reported binding signal (PBM E-score (-0.5 to 0.5)) value.
# Target or system: ZK337.2 (ZK337.2) (Caenorhabditis elegans)
# Sequence: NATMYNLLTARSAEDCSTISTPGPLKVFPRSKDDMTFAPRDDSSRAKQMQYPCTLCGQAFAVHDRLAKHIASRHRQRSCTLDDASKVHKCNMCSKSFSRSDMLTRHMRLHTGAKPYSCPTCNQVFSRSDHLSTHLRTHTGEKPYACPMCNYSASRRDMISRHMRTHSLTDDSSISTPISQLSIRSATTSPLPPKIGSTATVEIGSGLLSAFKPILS
Respond using a number only.

# Entry sequence, Target or system, Measurement
records = [
    ("ACGCCCAC (double strand) [8-mer ACGCCCAC]", "ZK337.2 (ZK337.2) (Caenorhabditis elegans)", 0.492),
]

QUERY: ZK337.2 (ZK337.2) (Caenorhabditis elegans) / binding signal (PBM E-score (-0.5 to 0.5)) / ACGCCCCC (double strand) [8-mer ACGCCCCC] : value?
RESULT: 0.495

QUERY: ZK337.2 (ZK337.2) (Caenorhabditis elegans) / binding signal (PBM E-score (-0.5 to 0.5)) / CGCCCACG (double strand) [8-mer CGCCCACG] : value?
RESULT: 0.492

QUERY: ZK337.2 (ZK337.2) (Caenorhabditis elegans) / binding signal (PBM E-score (-0.5 to 0.5)) / CCACCCAC (double strand) [8-mer CCACCCAC] : value?
RESULT: 0.491

###

As shown below, each of these sequences has a reported binding signal (PBM E-score (-0.5 to 0.5)) value.
# Target or system: die-1 (C18D1.1) (Caenorhabditis elegans) (UniProt A0A131MCR4)
# Sequence: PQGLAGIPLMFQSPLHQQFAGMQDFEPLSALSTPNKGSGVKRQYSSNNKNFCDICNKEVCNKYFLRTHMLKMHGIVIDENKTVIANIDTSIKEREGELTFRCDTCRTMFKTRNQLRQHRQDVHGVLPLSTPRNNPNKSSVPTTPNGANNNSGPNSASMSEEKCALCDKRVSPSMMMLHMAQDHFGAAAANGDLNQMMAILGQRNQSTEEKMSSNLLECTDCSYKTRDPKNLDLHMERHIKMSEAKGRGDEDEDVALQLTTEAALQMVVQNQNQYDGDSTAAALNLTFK
Respond using a number only.

A selection of reference data follows.
# Entry sequence, Measurement
rows = [
    ("AGTTTAAA (double strand) [8-mer AGTTTAAA]", 0.49),
    ("ATTTTAAA (double strand) [8-mer ATTTTAAA]", 0.496),
    ("TTTAAAAA (double strand) [8-mer TTTAAAAA]", 0.48),
    ("GTTTAAAC (double strand) [8-mer GTTTAAAC]", 0.481),
    ("ACTTTAAA (double strand) [8-mer ACTTTAAA]", 0.493),
]

QUERY: Name the reported binding signal (PBM E-score (-0.5 to 0.5)) value associated with the sequence ATTTAAAA (double strand) [8-mer ATTTAAAA]
RESULT: 0.481

QUERY: Name the reported binding signal (PBM E-score (-0.5 to 0.5)) value associated with the sequence CTTTTAAA (double strand) [8-mer CTTTTAAA]
RESULT: 0.47
